Reported values of melting point for individual entries

{"COMPOUND": "O=[N+]([O-])c1cc(F)cc2c1OCC2", "melting point": "113 to 114 °C"}
{"COMPOUND": "O=C1CN(C(=O)c2ccc(Cl)cc2)N(Cc2ccc(Cl)cc2)C(=O)N1", "melting point": "202 °C"}
{"COMPOUND": "CN1CCN(c2cc3nc(C(C)(C)C)sc3cc2[N+](=O)[O-])CC1", "melting point": "132 to 135 °C"}
{"COMPOUND": "CC(C)(C)c1ccc(CCCC(=O)CC2CCCCC2)cc1NC(=O)CC1c2ccccc2Oc2ccccc21", "melting point": "193 to 194 °C"}
{"COMPOUND": "O=Cc1cc(OCc2ccccc2)c(OCc2ccccc2)cn1", "melting point": "104 °C"}
{"COMPOUND": "O=C(NC[C@H]1O[C@H]1c1ccccc1)c1ccc(NC(=O)C(F)(F)F)cc1 (racemic)", "melting point": "190 °C"}

QUERY: # melting point lookup, item COc1ccc2c(c1)OC(C(=O)O)C2 (racemic)
RESULT: 108 to 110 °C

QUERY: # melting point lookup, item `Cc1cc(C=CC#N)c(Cl)cc1F`
RESULT: 90 to 91 °C

QUERY: # melting point lookup, item `Cc1cccc(C)c1CNc1cc(C2=NCCO2)cc2c1nc(C)n2C`
RESULT: 235 °C

QUERY: # melting point lookup, item `COC(=O)c1cccc2c1CN(c1c(F)cc3c(=O)c(C(=O)O)cn(-c4ccc(F)cc4)c3c1F)C2`
RESULT: 283 to 287 °C

QUERY: # melting point lookup, item CN1C(=O)C(c2ccccc2)(C2CCNCC2)N=C1N (configuration not stated)
RESULT: 269 to 271 °C

QUERY: # melting point lookup, item `CC(=O)c1cc2c(cc1NC(=O)c1sccc1S(=O)(=O)Nc1onc(C)c1Cl)OCO2`
RESULT: 191 to 193 °C

QUERY: # melting point lookup, item CCOC(C#N)NC(=O)c1cccc(OC)c1 (configuration not stated)
RESULT: 72 °C

QUERY: # melting point lookup, item `NS(=O)(=O)c1ccsc1CO`
RESULT: 85 to 89 °C

QUERY: # melting point lookup, item `CCOc1nc(-c2ccc(OC)c(OC)c2)cc(=Nc2c(C)cc(C)cc2C)n1C`
RESULT: 116 to 119 °C

QUERY: # melting point lookup, item `N/C(=C1/Sc2ccccc2C1=O)c1ccc(F)cc1`
RESULT: 158 °C

QUERY: # melting point lookup, item CC1(C)N=C(c2ccccc2)C(c2ccc(N)cc2)O1 (configuration not stated)
RESULT: 162 to 163 °C

QUERY: # melting point lookup, item `CCOC(=O)C=C1CN=C(c2ccccc2F)c2cc(Cl)ccc2N1`
RESULT: 109 to 111 °C

QUERY: # melting point lookup, item `CSc1ccc(C[C@H](CO)NC(=O)OCc2ccccc2)cc1`
RESULT: 115 to 117 °C

QUERY: # melting point lookup, item `CCNS(=O)(=O)c1ccccc1C1CCCCC1`
RESULT: 100 to 102 °C

QUERY: # melting point lookup, item `COc1ccc2c(c1)C(=O)NCCS2`
RESULT: 164 to 166 °C

QUERY: # melting point lookup, item `NS(=O)(=O)c1ccc(NC(=O)CNc2ccc(Cl)cc2)c(Cl)c1`
RESULT: 185 °C

The measured values listed here are drawn from a melting point compilation (Tetko et al.; mined from patent text by program, amines drawn as free bases though some values may be those of a salt).
